Target: α1C Human Adrenergic Receptor (Homo sapiens, UniProt P35348)
Construct: expressed in transfected cells; host or cells: LM(tk-) cells
Sequence (P35348 whole entry): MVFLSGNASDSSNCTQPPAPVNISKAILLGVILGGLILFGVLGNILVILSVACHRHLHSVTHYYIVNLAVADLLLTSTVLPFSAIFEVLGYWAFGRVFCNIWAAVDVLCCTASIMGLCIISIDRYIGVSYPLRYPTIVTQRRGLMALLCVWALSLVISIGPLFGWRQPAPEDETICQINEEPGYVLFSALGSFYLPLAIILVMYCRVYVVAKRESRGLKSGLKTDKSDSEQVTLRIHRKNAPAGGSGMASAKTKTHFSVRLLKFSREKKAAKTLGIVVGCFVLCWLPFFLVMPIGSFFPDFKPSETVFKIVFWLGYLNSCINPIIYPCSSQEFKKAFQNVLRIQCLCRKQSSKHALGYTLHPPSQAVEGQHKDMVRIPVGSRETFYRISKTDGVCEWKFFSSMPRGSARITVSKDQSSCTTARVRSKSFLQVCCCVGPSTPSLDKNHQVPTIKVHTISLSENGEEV
Assay: Equilibrium competition binding, [3H] prazosin, membranes of transfected LM(tk-) cells
Settings: cloned human receptor; [3H] prazosin; read-out: pKi Alpha-1 C (converted)
So basically: is Ki under 2000 nM? Then met. Not under? Then not met.

* CC(C)n1cnc2ccc(NC3=NCCN3)c(Br)c21 | met
* CC(C)n1cnc2c(Br)c(NC3=NCCN3)ccc21 | met
* CCCCc1cc(NC2=NCCN2)cc2[nH]cnc12 | met

Note: attention shifts to another entry.
Q: Quick check: does Cn1cnc2cc(NC3=NCCN3)ccc21 have Ki under 2000 nM?
Ans: not met
